# ASSAY COMMENT: yeast display, Sf9 membrane polyspecificity reagent, FACS + sequencing; frameworks hold sequencing errors
MEASURE NAME: polyreactivity (PSR sort gate)

// known answers, use as guide
SEQUENCE TEXT: QLQLQESGGGLVQSGGSLRLSCAASGTISFTRDMGWYRQAPGKEREFVASIDRGASTYYADSVKGRFTISRDNAKNTVYLQMNSLKPEDTAVYYRAFIAPFYSSFAYWGQGTQVTVSS
polyreactivity (PSR sort gate): high polyreactivity
--
SEQUENCE TEXT: QVQLVESGGGLVQAGGILRLSCAASGRIFRYNAMGWSRQAPGKERELVAAISSSGSSTYYADSVKGRFTISRDNAKNTVYLQMNSLKPADTAVYYCNARIPSRYYYQYDYWGQGTQVTVSS
polyreactivity (PSR sort gate): high polyreactivity
--
SEQUENCE TEXT: QVQLVESGGGLVQAGGSLRLSCAASGFISDYYAMGWDRQAPGKERELVADISSGGSTYYADSVKGRCTISRDNAKNTVYLQMNSLKPEDTAVYYCNAGDYFVRFVYYWDDERYDYWGQGTQVTVSS
polyreactivity (PSR sort gate): low polyreactivity
--
SEQUENCE TEXT: QVQLVESGGGLVQAGGSLRLSCAASGFTFGRYAMGWYRQAPGKERELVAAISTSGGRTYYADSVKGRFTISRDNAKNTVYLQMNSLKPEDTAVYYCAAEQRRFTGYDYWGQGTQVTVSS
polyreactivity (PSR sort gate): high polyreactivity
--
SEQUENCE TEXT: QVQLVESGGGLVQAGGTLRLSCAASGRIFSGYVMGWYRPAPGKERELVAVISRSGGSTYYADSVKGRFTISRDNAKNTVYLQMNSLKPEDTAVDYCAAKHIDGSRGYDYWGQGTQVTVSS
polyreactivity (PSR sort gate): low polyreactivity
--
SEQUENCE TEXT: QVQLVESGGGLVQAGGSLRLSCAASGRIFRWYAMGWYRPAPGKERELVAAISRSGTSTYYADSVKGRFTISRDNAKNTVYLQMNSLKPEDTAVYDCAADRTGRIVLSPTDEMDYWGQGTQVTVSS
polyreactivity (PSR sort gate): low polyreactivity
--
SEQUENCE TEXT: QVQLVESGGGLVQAGGSLRLSCAASGSTFPYVMGWYRQAPGKERELVAAISWSGTSTYYADSVKGRFTISRDNAKNTVYLQMNSLKPEDTAVYYCNVVYRVVSPSGGGYWGQGTQVTVSS
polyreactivity (PSR sort gate): high polyreactivity
--
SEQUENCE TEXT: QVQLVESGGGLVQAGGSLSLICAASGRIYPKYAMGWYRQAPGKERELVAGITKRVGSTYYADSVKGRFTISRDNAKHTVYLQMTSLKPEDTAGYYCAKRWVSGPHGYWGQGTQVTVSS
polyreactivity (PSR sort gate): low polyreactivity
--
SEQUENCE TEXT: QVQLVESGGGLVQAGGSLRLSCAASGSTFYYYAMGWYRQAPGKDRELVAAISKRDGRTYYADSVKGRFTISRDNAKNTVYLQMNSLKPEDTAVYYCNAYSYGHYYWGQGTQVTVSS
polyreactivity (PSR sort gate): high polyreactivity
--
SEQUENCE TEXT: QVQLVESGGGLVQAGGSLRLSCAASGRTFANYAMGWYRQAPGKERELVAAISYSGGSTYYADSVKGRFTISRDNAKNTVYLQMNSLKPVDTAVYYCAKRWTGLGGYYYWGQGTQVTVSS
polyreactivity (PSR sort gate): high polyreactivity

Please examine the following record next.
**Query** So what does the record say about polyreactivity (PSR sort gate) for `QVQLVESGGGLVQAGGSLRLSCAASGLIFNVNVMGWYRQAPGKERELVAAIDYSGGSTYYADSVKGRFTISRDNAKNTVFLQMNSLKPEDTAVYYCSADDAAWPYSWWGFDYWGQGTQVTVSS` ?
**Result** low polyreactivity

====

# ASSAY COMMENT: yeast display, Sf9 membrane polyspecificity reagent, FACS + sequencing; frameworks hold sequencing errors

SEQUENCE TEXT: QVQLVESGGCLVQAGGSLRLSCAASGIIFYTYAMGWYRQAPGKEREFVAGIRWSGSSTYYADSVKGRFTISRDNAKNTVYLQMNSLKPEDTAVYYCATGQPYGPLYSLGYGYWGQGTQVTVSS
polyreactivity (PSR sort gate): high polyreactivity
--
SEQUENCE TEXT: QVQLVESGGGLVQAGGSLRLSCAASGRIFHRNAMGWYRPAPGKERELVATIRGNGGSTYYADSVKGRFTISRDNAKNTVYLQMNSLKPEDTAVYYCARDAQGYGGWWTYSRFYSWGQGTQVTVSS
polyreactivity (PSR sort gate): high polyreactivity
--
SEQUENCE TEXT: QVQLVESGGGLVQAGGSLRLSCAASGRIFSSYAMGWYRQEPGKERELVAAISRSGARTYYADSVKGRFTISRDNAKNTVYLQMNSLKPEDTAVYYCAAVTVAGYDYWGQGTQVTVSS
polyreactivity (PSR sort gate): high polyreactivity

====

# ASSAY COMMENT: yeast display, Sf9 membrane polyspecificity reagent, FACS + sequencing; frameworks hold sequencing errors
MEASURE NAME: polyreactivity (PSR sort gate)

Here is how some sequences turned out for polyreactivity (PSR sort gate).
SEQUENCE TEXT: QVQLVESGGGLVQAGGSLRLSCAASGSTFLRYAMGWYRQAPGKERELVAGIRYSGGTYYADSVKGRFTISRDNAKNTVYLQMNSLKPEDTAVYYCAAYWKLGGFRYGYWGQGTQVTVSS
polyreactivity (PSR sort gate): high polyreactivity
--
SEQUENCE TEXT: QVQLVESGGGLVQAGGSLRLSCAASGFTFYFYAKGWYTQSPGKERELVASISSSGGSTYADSVKGPFTISRDNAKNTVYLQMNSLKPEDTAVYYCAATEIFRFRYVAVGYDYWGQGTQVTVSS
polyreactivity (PSR sort gate): low polyreactivity
--
SEQUENCE TEXT: QVQLVESGGGLVQAGGSLRLSCAASGFTFYGNAMGWYRQAPGKERELVSAISYNGGSTYYADSVKGRFTISRDNAKNTVYLQMNSLKPEDTAVYYCAAGYYWQYTSSSAQYAYDYWGQGTQVTVSS
polyreactivity (PSR sort gate): low polyreactivity
--
SEQUENCE TEXT: QFQLVESGGGLVQAGGSLRLSCAASGSIIPIYAMGWYRQAPGKERELVAAINRSGGSTYYADSVKGRFTISRDNAKNTVYLQMNSLKPEDTAVYYCNADYGYHNQLFWGYYGWSSDHWGQGTQVTVSS
polyreactivity (PSR sort gate): low polyreactivity
--
SEQUENCE TEXT: QVQLVESGGGLVQAGGSLRLICAASGSIFCTYAMGWYRQAPGKERELVAAITTSVGRTYYADSVKGRFTISRDNAKNTVYLHMNSLKPDDTAVYYCYAVRGGRYGLDYWGQGTHVTVSS
polyreactivity (PSR sort gate): high polyreactivity
--
SEQUENCE TEXT: QVQLVESGGGLVQAGGSLRLTCAASGRIIKLYAMGWYRQAPGKETEFVAAITWSGGRTYYADSVKGRFTISRDNAKNTVYLQMNSLTPEDTAVYSCAAYDTYDWYDYWGQGTQVTVSS
polyreactivity (PSR sort gate): high polyreactivity
--
SEQUENCE TEXT: QVQLVESGGGLVQAGGSLRLSCAASGFTLGHYAMGWYRQAPGKERELVAVITSGSSTNYADSVKGRFTISRDNAKNTVYLQMNSLKPDDTAVYYCAAEDPYFKWLYYYWGQGTQVTVSS
polyreactivity (PSR sort gate): low polyreactivity
--
SEQUENCE TEXT: QVQLVESGGGLVQAGGSLRLSCAASGSTFRKYTMGWYRQAPGKERELVASISRRGGSTYYADSVKGRFTISRDNAKNTVYLQMNSLKPEDTAVYYCNVTYSQYGYDYWGQGTQVTVSS
polyreactivity (PSR sort gate): high polyreactivity

**Query** // query polyreactivity (PSR sort gate) value for entry `QVQLVESGGGLVQAGGSLRLSCAASGSILTLYSMGWYRQAPGKERELVAAISSTGGRTYYADSVKGRFTISRDNAKNTVYVQMNSLKPEDTAFYYCAARGWGGLRSYGYYYWGQGTQVTVSS`
**Result** high polyreactivity

**Query** Which polyreactivity (PSR sort gate) reading was recorded for the sequence `QVQLVESGGGLVQAGGSLRLSCAASGRISQTNAMGWYRQAPGKERELVAAISWRGGSTYYADSVKGRFTISRDNAKNTVYLQMNSLKPEDTAVYYCAVRGKYDRHYYWGQGTQVTVSS` ?
**Result** high polyreactivity

**Query** Returns the measured polyreactivity (PSR sort gate) for the input sequence. Input: `QVQLVESGGGLVQAGGSLRLSCAASGRIFGRNVMGWYRQAPGKERELVAAISWIGGSTSYADSVKGRFTISRDNAKNTVYLQMNSLKPEDTAVYYCAAKPYGYRHYWGYDYWGQGTQVTVSS`
**Result** high polyreactivity

====

# ASSAY COMMENT: yeast display, Sf9 membrane polyspecificity reagent, FACS + sequencing; frameworks hold sequencing errors

SEQUENCE TEXT: QVQLVESGGGLVQAGGSLRLSCAASGSTFHRYALGWYRQAPGKERELVATITSRGGITYYADSVKGRFTISRDNAKNTVYLQMNSLKPEDTAVYYCYRYDYWGQGTQVTVSS
polyreactivity (PSR sort gate): low polyreactivity
//
SEQUENCE TEXT: QVQLVESGGGLVQAGGSLRLSCAASGRIFTHNAMGWYRQAPGKERELVAAITSGGRTTYADSVKGRFTISRDNAKNTVYLQMNSLKPEDTAVYYCNADTGLGSLDFYNRDYWGHGTQVTVSS
polyreactivity (PSR sort gate): low polyreactivity
